target: Mitogen-activated protein kinase 6 (Homo sapiens)
A collection of molecules and their measured ΔTm
Express it in °C; write the number only.

Consider the following illustrative entries.
CC(C)n1cnc2/c(=N/c3cccc(Cl)c3)nc(NCCO)[nH]c21 : 0.2
Cn1cnc2c(NCc3ccccc3)nc(NCCO)nc21 [OLOMOUCINE] : 0.2
O=c1sn(Cc2ccccc2)c(=S)n1Cc1ccccc1 : 0.5
Cn1cc(C2=C(c3cn(CCCSC(=N)N)c4ccccc34)C(=O)NC2=O)c2ccccc21 : 0
N#C/C(=C\c1ccc(O)c(O)c1)C(=O)NCc1ccccc1 : 0.4

## Input Look up ΔTm: Oc1cccc(-c2nc(N3CCOCC3)c3oc4ncccc4c3n2)c1
## Output 0.5

## Input Next: O=S(=O)(c1cccc2c(Cl)cccc12)N1CCCNCC1
## Output 0

## Input Next: O=C(Nc1cccc(Nc2cc(Nc3cccc(C(F)(F)F)c3)ncn2)c1)C1CC1
## Output 2.1

## Input Next: O=C1NC(=O)c2c1c1c3ccccc3n3c1c1c2c2ccccc2n1C1CCC3O1
## Output 0.5

## Input Next: CSc1nc(-c2ccc(F)cc2)c(-c2ccnc(NC(C)c3ccccc3)c2)[nH]1 (racemic)
## Output 0.4

## Input Next: N#C/C(=C1/Nc2ccccc2S1)c1ccnc(NCCc2cccnc2)n1
## Output 2

## Input Next: Cc1cc(C=C2C(=O)C=CC2=O)cc(C)c1O
## Output -1.6

## Input Next: CCOc1cc(/C=C(\C#N)C(N)=O)cc(CSc2ccccc2)c1O
## Output 0.1

## Input Next: Cc1nc(Nc2ncc(C(=O)Nc3c(C)cccc3Cl)s2)cc(N2CCN(CCO)CC2)n1
## Output 0.9

* * *

A collection of molecules and their measured ΔTm
Biological target: Dual specificity mitogen-activated protein kinase kinase 6 (Homo sapiens) (UniProt P52564)
Sequence (whole entry): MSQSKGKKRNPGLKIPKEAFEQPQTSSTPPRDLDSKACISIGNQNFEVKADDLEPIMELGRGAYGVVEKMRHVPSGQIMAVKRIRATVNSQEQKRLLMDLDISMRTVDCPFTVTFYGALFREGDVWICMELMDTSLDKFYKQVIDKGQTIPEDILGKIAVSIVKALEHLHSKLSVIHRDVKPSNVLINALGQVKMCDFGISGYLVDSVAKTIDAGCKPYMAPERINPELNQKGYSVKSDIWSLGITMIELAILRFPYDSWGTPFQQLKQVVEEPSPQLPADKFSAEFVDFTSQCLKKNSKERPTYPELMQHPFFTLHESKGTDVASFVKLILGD
Express it in °C; write the number only.

Consider the following illustrative entries.
Clc1ccc(Nc2nnc(Cc3ccncc3)c3ccccc23)cc1 : 0.4
C/C(O)=C(\C#N)C(=O)Nc1cc(Br)ccc1Br : 0.2
Nc1n[nH]c2nc3ccccc3nc12 [QUINOXALINE1] : 0.3
CC(C)(C)c1cc(C=C2C(=O)C=CC2=O)cc(C(C)(C)C)c1O : -2.5
CC(C)n1cnc2c(NCc3ccccc3)nc(NCCCO)nc21 : 0
O=C1c2ccccc2-c2n[nH]c3cccc1c23 : 4.7
N#C/C(=C(/N)Sc1ccc(N)cc1)c1ccccc1C(F)(F)F : 0.2
O=S(=O)(NCCNC/C=C/c1ccc(Br)cc1)c1cccc2cnccc12 : 0

## Input Look up ΔTm: Cn1cc(C2=C(c3cn(CCCN)c4ccccc34)C(=O)NC2=O)c2ccccc21
## Output 0.8

## Input Next: N#C/C(=C\c1ccc(O)c(O)c1)C(=O)Nc1ccccc1
## Output 0.3

## Input Next: COc1cc2c(cc1OC)-c1n[nH]c(Nc3cccc(F)c3)c1C2
## Output 0.3
